- Target: Glutamate NMDA receptor; Grin1/Grin2c (Rattus norvegicus, UniProt P35439+Q00961)
- Sequence (Q00961 whole entry, other chains not shown): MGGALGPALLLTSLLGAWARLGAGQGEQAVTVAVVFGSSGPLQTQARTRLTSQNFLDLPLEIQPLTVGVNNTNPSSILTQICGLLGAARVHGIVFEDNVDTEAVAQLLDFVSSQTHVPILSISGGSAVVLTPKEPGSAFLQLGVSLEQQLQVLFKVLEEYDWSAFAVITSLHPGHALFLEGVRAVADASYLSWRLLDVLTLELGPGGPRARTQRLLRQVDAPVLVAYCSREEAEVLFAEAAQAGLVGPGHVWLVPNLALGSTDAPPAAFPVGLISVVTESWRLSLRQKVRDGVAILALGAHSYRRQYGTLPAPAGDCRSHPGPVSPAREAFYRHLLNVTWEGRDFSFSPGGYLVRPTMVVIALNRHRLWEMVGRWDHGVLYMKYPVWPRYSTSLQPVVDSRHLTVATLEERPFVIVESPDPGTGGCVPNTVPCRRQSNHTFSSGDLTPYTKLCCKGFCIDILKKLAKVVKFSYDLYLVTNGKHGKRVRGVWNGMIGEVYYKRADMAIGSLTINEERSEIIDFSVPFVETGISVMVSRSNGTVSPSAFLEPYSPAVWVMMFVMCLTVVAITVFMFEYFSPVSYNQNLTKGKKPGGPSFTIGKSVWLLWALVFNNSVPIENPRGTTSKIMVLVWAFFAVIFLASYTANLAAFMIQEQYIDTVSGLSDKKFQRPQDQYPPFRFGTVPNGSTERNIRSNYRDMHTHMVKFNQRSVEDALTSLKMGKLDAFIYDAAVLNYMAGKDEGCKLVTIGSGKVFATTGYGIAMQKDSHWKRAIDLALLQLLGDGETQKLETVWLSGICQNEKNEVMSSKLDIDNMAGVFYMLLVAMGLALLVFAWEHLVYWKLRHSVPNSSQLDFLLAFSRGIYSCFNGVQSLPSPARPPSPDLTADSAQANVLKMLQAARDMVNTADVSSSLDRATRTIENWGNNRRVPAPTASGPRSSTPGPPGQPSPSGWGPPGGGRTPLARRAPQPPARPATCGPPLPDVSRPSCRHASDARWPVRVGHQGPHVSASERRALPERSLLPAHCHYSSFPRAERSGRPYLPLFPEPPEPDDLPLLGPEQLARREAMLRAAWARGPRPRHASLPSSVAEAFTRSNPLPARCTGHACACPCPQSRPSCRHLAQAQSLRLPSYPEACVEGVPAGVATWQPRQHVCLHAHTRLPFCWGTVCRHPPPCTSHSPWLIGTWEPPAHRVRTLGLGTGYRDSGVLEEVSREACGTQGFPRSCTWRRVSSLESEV
- Method description: Antagonist activity at rat recombinant NR1-NR2C receptor expressed in Xenopus oocytes at holding potential of -40mV by two-electrode voltage-clamp electrophysiology
Observable: IC50

Reported IC50 of COc1ccccc1-n1c(/C=C/c2cccc([N+](=O)[O-])c2)nc2ccccc2c1=O : > 300 µM

IC50 measured on O=c1c2cc(I)ccc2nc(/C=C/c2cccnc2)n1-c1cccc([N+](=O)[O-])c1 = > 300 µM

Notebook: O=c1c2cc(I)ccc2nc(/C=C/c2cccnc2)n1-c1ccccc1 , IC50 read as > 300 µM

The measured IC50 associated with Cc1ccc(-n2c(/C=C/c3cccnc3)nc3ccc(I)cc3c2=O)cc1 reads > 300 µM

Record COc1cccc(-n2c(/C=C/c3ccccc3[N+](=O)[O-])nc3ccccc3c2=O)c1 , field IC50: > 300 µM

C=CCOc1ccc(/C=C/c2nc3ccccc3c(=O)n2-c2ccc(C(=O)O)cc2)cc1 has a reported IC50 of 111 µM

Kindly note the recorded IC50 for COc1ccc2nc(/C=C/c3cccc([N+](=O)[O-])c3)n(-c3ccc(C#N)cc3)c(=O)c2c1 , which is > 300 µM

The recorded IC50 for entry CCCc1ccc2nc(/C=C/c3cccc([N+](=O)[O-])c3)n(-c3ccc(C(=O)O)cc3)c(=O)c2c1 equals 3 µM

Consider COc1cccc(/C=C/c2nc3ccc(OC)cc3c(=O)n2-c2ccc(C(=O)O)cc2)c1 . Its measured IC50 is 18 µM
